- target entity: Renin (Homo sapiens, UniProt P00797)
- measurement description: Tested in vitro for its ability to inhibit the human plasma renin
- Format: cell-free
pIC50: −log10 of the molar value.
observation type: pIC50

entry smiles | pIC50
CCCC[C@H](O[C@@H](Cc1ccccc1)C(=O)N1CCC(OCOC)CC1)C(=O)N[C@@H](CC1CCCCC1)[C@@H](O)C[C@H](C(=O)NCCCNC(=NC#N)SC)C(C)C | 8.89

[P] CCCC[C@H](N[C@@H](Cc1ccccc1)C(=O)N1CCC(OCOC)CC1)C(=O)N[C@@H](CC1CCCCC1)[C@@H](O)C[C@H](C(=O)NCC(=O)O)C(C)C
[Q] CCCC[C@H](O[C@@H](Cc1ccccc1)C(=O)N1CCC(OCOC)CC1)C(=O)N[C@@H](CC1CCCCC1)[C@@H](O)C[C@H](C(=O)NCCC(=O)O)C(C)C
Q. Consider P and Q . Which of these has its pIC50 at a higher number? Answer by stating the label of the chosen item.
A. Q
(Q: 8.17, P: 7.92)

* * *

- target entity: Renin (Canis familiaris)
- measurement description: Tested in vitro for its ability to inhibit the dog plasma renin
pIC50: −log10 of the molar value.
observation type: pIC50

Please review the following examples before continuing.
entry smiles | pIC50
CCCC[C@H](N[C@@H](Cc1ccccc1)C(=O)N1CCC(OCOC)CC1)C(=O)N[C@@H](CC1CCCCC1)[C@@H](O)C[C@H](C(=O)NCc1ccccn1)C(C)C | 7.12
CCCC[C@H](N[C@@H](Cc1ccccc1)C(=O)N1CCC(OCOC)CC1)C(=O)N[C@@H](CC1CCCCC1)[C@@H](O)C[C@H](C(=O)NCCCn1ccnc1)C(C)C | 7.62
CCCC[C@H](N[C@@H](Cc1ccccc1)C(=O)N1CCC(OCOC)CC1)C(=O)N[C@@H](CC1CCCCC1)[C@@H](O)C[C@H](C(=O)NCc1ccncc1)C(C)C | 7.23

[P] CCCC[C@H](N[C@@H](Cc1ccccc1)C(=O)N1CCC(OCOC)CC1)C(=O)N[C@@H](CC1CCCCC1)[C@@H](O)C[C@H](C(=O)NCCN1CCOCC1)C(C)C
[Q] CCCC[C@H](N[C@@H](Cc1ccccc1)C(=O)N1CCC(OCOC)CC1)C(=O)N[C@@H](CC1CCCCC1)[C@@H](O)C[C@H](C(=O)NCCc1ccccn1)C(C)C
Q. Consider P and Q . Which of these has its pIC50 at a higher number? Answer by stating the label of the chosen item.
A. P

* * *

- target entity: Renin (Homo sapiens, UniProt P00797)
- Sequence (P00797 whole entry): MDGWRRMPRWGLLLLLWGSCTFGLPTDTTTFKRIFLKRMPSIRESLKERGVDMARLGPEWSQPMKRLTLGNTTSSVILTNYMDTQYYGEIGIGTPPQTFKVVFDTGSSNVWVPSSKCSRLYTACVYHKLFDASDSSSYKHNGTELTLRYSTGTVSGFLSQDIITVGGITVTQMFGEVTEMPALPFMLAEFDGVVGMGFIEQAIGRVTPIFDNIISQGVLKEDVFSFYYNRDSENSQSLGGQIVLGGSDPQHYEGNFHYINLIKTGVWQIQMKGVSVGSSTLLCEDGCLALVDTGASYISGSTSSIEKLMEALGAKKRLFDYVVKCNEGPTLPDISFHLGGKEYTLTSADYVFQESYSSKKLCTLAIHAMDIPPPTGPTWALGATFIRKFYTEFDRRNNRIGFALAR
- measurement description: Tested in vitro for its ability to inhibit the human plasma renin at pH of 7.4
- Format: cell-free
pIC50: −log10 of the molar value.
observation type: pIC50

[I] CCCC[C@H](O[C@@H](Cc1ccccc1)C(=O)N1CCC(OCOC)CC1)C(=O)N[C@@H](CC1CCCCC1)[C@@H](O)C[C@H](C(=O)NCCCNC(C)=O)C(C)C
[II] CCCC[C@H](O[C@@H](Cc1ccccc1)C(=O)N1CCC(OCOC)CC1)C(=O)N[C@@H](CC1CCCCC1)[C@@H](O)C[C@H](C(=O)NCC/N=C(\NC#N)SC)C(C)C
[III] CCCC[C@H](O[C@@H](Cc1ccccc1)C(=O)N1CCC(OCOC)CC1)C(=O)N[C@@H](CC1CCCCC1)[C@@H](O)C[C@H](C(=O)NCCCNC(N)=NC#N)C(C)C
Q. List the items above again, this time ordered by increasing pIC50. Show the ranking through the labels, in the order asked for.
A. II, I, III

[a] CCCC[C@H](O[C@@H](Cc1ccccc1)C(=O)N1CCC(OCOC)CC1)C(=O)N[C@@H](CC1CCCCC1)[C@@H](O)C[C@H](C(=O)NCC(C)(C)N)C(C)C
[b] CCCC[C@H](O[C@@H](Cc1ccccc1)C(=O)N1CCC(OCOC)CC1)C(=O)N[C@@H](CC1CCCCC1)[C@@H](O)C[C@H](C(=O)NCCCNC(N)=S)C(C)C
[c] CCCC[C@H](O[C@@H](Cc1ccccc1)C(=O)N1CCC(OCOC)CC1)C(=O)N[C@@H](CC1CCCCC1)[C@@H](O)C[C@H](C(=O)NCc1nn[nH]n1)C(C)C
[d] CCCC[C@H](O[C@@H](Cc1ccccc1)C(=O)N1CCC(OCOC)CC1)C(=O)N[C@@H](CC1CCCCC1)[C@@H](O)C[C@H](C(=O)NCCNc1n[nH]c(N)n1)C(C)C
Q. Task field, ranking: reported pIC50, descending order. Show the ranking through the labels, in the order asked for.
A. d, b, a, c
